# Test system: HUVECs
# Measurement Notes: High-content imaging cytotoxicity in HUVECs, 24 h
# Format: cell-based, human
# Condition: Homo sapiens, HUVEC, 24 h, HUVECs, 24 hr, 10.00 µM; 0.00 µM = 100.00; read-out: huvec.mito.24hr
Structures can show the parent of a compound that is named as a salt.
// activity at 10 µM lookup, one value per entry
Response body: numeric value in %, unit text excluded.

// solved cases for activity at 10 µM follow
Compound	Property Label	Measurement
O=S(=O)(O)Oc1cccc(-c2ccc(Cl)cc2)c1 [3'-yl PCB 3 sulfate]	activity at 10 µM	118
Clc1ccc(Cl)c(-c2cc(Cl)ccc2Cl)c1	activity at 10 µM	60
Oc1cc(Cl)c(-c2cc(Cl)ccc2Cl)cc1Cl	activity at 10 µM	33.2
Clc1cccc(-c2cccc(Cl)c2)c1	activity at 10 µM	93.9
O=S(=O)(O)Oc1cc(-c2ccccc2)ccc1Cl [3-yl PCB 3 sulfate]	activity at 10 µM	89.7
O=C1C=CC(=O)C(c2ccc(Cl)cc2)=C1	activity at 10 µM	30.5
O=S(=O)(O)Oc1cc(Cl)ccc1-c1ccccc1 [2-yl PCB 3 sulfate]	activity at 10 µM	83.3
O=S(=O)(O)Oc1cc(Cl)c(-c2cc(Cl)ccc2Cl)cc1Cl [4-yl PCB 52 sulfate]	activity at 10 µM	89.3
O=S(=O)(O)Oc1ccc(-c2cccc(Cl)c2)cc1Cl [4-yl PCB 11 sulfate]	activity at 10 µM	107

Next compound, activity at 10 µM to be filled in.
Fill in the blank: the reported activity at 10 µM of O=S(=O)(O)Oc1ccc(-c2ccc(Cl)cc2)cc1 [4'-yl PCB 3 sulfate] is ____. 103

----------
# System: iCell endothelial cells (human iPSC-derived ECs)
# Measurement Notes: Tube formation (tubulogenesis) assay in iCell endothelial cells, 18 h
# Type: cell-based
# Condition: Homo sapiens, Endothelial cell, iPSC-EC tube formation, 18 hr, 1.00 µM, 0.00 µM control = 100.00, read-out: endo.tta.18hr
Counter-ions that a name gives are not always drawn.
Property Label: activity at 1 µM
Returns: string containing the number followed by the unit.

Reference set (2 entries):
Molecule	activity at 1 µM
COc1ccc(-c2ccc(Cl)cc2)cc1 [4'-OMe PCB3]	127%
Clc1cccc(-c2cccc(Cl)c2)c1 [PCB11]	132%

Could you share which activity at 1 µM value was measured for O=S(=O)(O)Oc1ccc(-c2ccc(Cl)cc2)cc1 [4'-yl PCB 3 sulfate] ? 128%

Value lookup for activity at 1 µM; key = O=S(=O)(O)Oc1ccc(-c2cccc(Cl)c2)cc1Cl [4-yl PCB 11 sulfate] 124%

Suppose we examine the molecule Oc1ccc(-c2cccc(Cl)c2)cc1Cl [4-OH PCB11] ; what activity at 1 µM value has been reported? 144%

Need activity at 1 µM of O=S(=O)(O)Oc1cc(-c2ccccc2)ccc1Cl [3-yl PCB 3 sulfate] , thanks. 106%

----------
# System: HUVECs
# Measurement Notes: High-content imaging cytotoxicity in HUVECs, 24 h
# Type: cell-based, human
# Condition: Homo sapiens, HUVEC, 24 h, HUVEC, cyto, 24 hr; read-out: POD huvec.cyto.24hr
Where a name gives a salt, the structure may show the parent alone.
Property Label: minimal effective concentration
Answer as a quantity: numeral, then unit.

Below: 3 compounds and their reported minimal effective concentration.
Compound	Target Or Test System	minimal effective concentration
O=S(=O)(O)Oc1ccc(-c2cccc(Cl)c2)cc1Cl [4-PCB 11 sulfate]	HUVECs	48.8 µM
Clc1ccc(-c2cc(Cl)c(Cl)c(Cl)c2)cc1Cl	HUVECs	5.33 µM
Oc1ccccc1-c1ccc(Cl)cc1	HUVECs	5.19 µM

We now examine a further compound.
Find the measured minimal effective concentration: item COc1ccc(-c2cccc(Cl)c2)cc1Cl , target or system HUVECs. 7.59 µM
